# reported growth; entries follow
- Test system: NCI-H460 lung
- TEST METHOD NOTES: NCI-60 one-dose screen, 48 h (100 = growth as untreated, 0 = no growth, -100 = all killed)
- TEST CONDITIONS: 10 µM unless noted
About 83,000 compounds went through this panel and 20% of them were active in at least one assay; those are over-represented in the sample as a whole.
The response must be a number in % with no trailing unit.

> print(dat)
                            compound.string    measured.on  outcome.measure  data.value
1  COc1ccc(COc2ccc(/C=C3/C(=O)Nc4cc(Cl)ccc43)cc2)cc1  NCI-H460 lung           growth        98.2
2  Cc1ccc(CNS(=O)(=O)/N=C2\NC(=O)NC2=C(Cl)Cl)cc1  NCI-H460 lung           growth        75.3
3  CS(=O)(=O)Nc1ccc(-c2nn(-c3ccc(S(C)(=O)=O)cc3)cc2/C=C/C(=O)c2ccc(NC(=O)CO[N+](=O)[O-])cc2)cc1  NCI-H460 lung           growth         110

Q: Answer with reported growth of `CN(C)CCCOc1c2ccc(Cl)cc2nc2c1oc1ccc(Cl)cc12`
A: -74.2

* * *

# reported growth; entries follow
- Test system: UACC-257 melanoma
- TEST METHOD NOTES: NCI-60 one-dose screen, 48 h (100 = growth as untreated, 0 = no growth, -100 = all killed)
- TEST CONDITIONS: 10 µM unless noted
- Description: Cells are grown in 96 well plates and exposed to the test compound for 48 hours. Compounds are tested at a single concentration, which is 10^-5 M for most compounds. The reported endpoint is percent growth (GI% or GIPRCNT), where numbers from 0 - 100% represent growth inhibition, and numbers from -100% - 0 represent cell death. For example, a value of 40 represents 60% growth inhibition. A value of 0 means no net growth occurred over the course of the experiment. […]
This is part of a sample that, as a whole, favours compounds with a hit. Of some 83,000 tested, about 20% had one in any assay. Activity calls are given as the source filed them. The calls were made as follows: active = growth percent below 10; inactive = the rest.

Before answering, review these 5 worked examples.
> print(dat)
                                   compound        measured.on        data.value
1  O=C(CCN1C(=O)/C(=C/c2ccccc2F)SC1=S)N1CCOCC1  UACC-257 melanoma  89.8% (inactive)
2  CC(C)(O)c1cncc(-c2ccc3ncnc(N4CCc5cc(F)c(Cl)cc54)c3c2)c1  UACC-257 melanoma  42.8% (inactive)
3  Cc1[nH]nc2ncc(C#Cc3cncc(C(=O)Nc4ccc(CN5CCN(C)CC5)c(C(F)(F)F)c4)c3)cc12  UACC-257 melanoma  14.7% (inactive)
4  c1ccc(CNc2ncnc3ccc(-c4cnc5[nH]ncc5c4)cc23)cc1  UACC-257 melanoma  95.4% (inactive)
5  C#Cc1nc(C2=C(C)C(=O)/C(=N/OC(C)=O)C2)cs1  UACC-257 melanoma  86.5% (inactive)

Q: Answer with reported growth of CCCC(=O)NC(c1ccc2c(c1)OC(F)(F)O2)c1cc(C)c2cccnc2c1O (centres undefined)
A: 3.17% (active)

Q: Answer with reported growth of `CC(=O)Oc1ccccc1C(=O)Nc1ccc(C(=O)/C=C/c2ccncc2)cc1`
A: 92.4% (inactive)
